- System tested: T1, human Protein S (human, UniProt P07225 42-676)
- T1 construct: Called 'full length Protein S' / 'human full-length Protein S'; It was coated on plates (ELISA), Eu-labeled (LANCE) or immobilized on a chip (Biacore); also called PS; full length Protein S
- T1 sequence: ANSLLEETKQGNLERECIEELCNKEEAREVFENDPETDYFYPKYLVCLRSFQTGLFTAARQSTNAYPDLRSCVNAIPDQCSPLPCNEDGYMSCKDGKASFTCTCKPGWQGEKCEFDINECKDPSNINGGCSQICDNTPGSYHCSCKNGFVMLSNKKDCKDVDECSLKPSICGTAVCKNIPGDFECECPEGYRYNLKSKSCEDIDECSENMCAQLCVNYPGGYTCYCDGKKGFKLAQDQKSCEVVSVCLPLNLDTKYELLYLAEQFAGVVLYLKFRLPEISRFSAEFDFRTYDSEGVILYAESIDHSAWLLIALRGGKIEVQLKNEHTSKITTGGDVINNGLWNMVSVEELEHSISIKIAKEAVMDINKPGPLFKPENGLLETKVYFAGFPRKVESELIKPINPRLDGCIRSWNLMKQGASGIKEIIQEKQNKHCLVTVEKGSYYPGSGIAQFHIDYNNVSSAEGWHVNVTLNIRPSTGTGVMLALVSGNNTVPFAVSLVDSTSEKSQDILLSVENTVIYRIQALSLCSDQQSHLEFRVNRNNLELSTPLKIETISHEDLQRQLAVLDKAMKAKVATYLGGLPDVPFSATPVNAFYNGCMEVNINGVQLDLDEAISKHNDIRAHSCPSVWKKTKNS
- Measurement protocol: LANCE TR-FRET competition; Protein S 2 nM, competitor tracer JBS0684 60 nM; Tecan F500 reader
- Protocol: Peptides also were characterized in a competition, homogenous europium-based TR-FRET assay (LANCE IC50 assay) using JBS0684 as a tracer (i.e., competitor for Protein S binding). […] The final volume was 50 μl/well. […] Binding of tracer peptides to soluble europium-labeled Protein S was detected by Streptavidin labeled with an acceptor fluorophor (ULight™). […]
Observable: IC50

Task: Please look up its IC50: Ac-TGLVSAGWYDYNFDHYREFT-NH2 (also called parent peptide JBS2572) [JBS2572]
Result: ~10 nM
